assay.details: stimulators of nuclear beta-catenin in C2C12, primary screen, imaging, WNT3A-conditioned medium, mouse C2C12, NPC library (AID 1117326)
test.context: at 10 µM, stronger effect = higher value
assay.readout: nuclear beta-catenin stimulation (%)
One number for each entry, in %.

These recorded examples may help you get a feel for the data.
molecule: O=C(O)c1ccc(=O)[nH]c1
nuclear beta-catenin stimulation [%]: 0.4

molecule: CC1Sc2c(C(=O)O)c(=O)c3cc(F)c(N4CCNCC4)cc3n21 (configuration not stated)
nuclear beta-catenin stimulation [%]: -0.2

molecule: Cc1nnc2n1-c1sc(CCC(=O)N3CCOCC3)cc1C(c1ccccc1Cl)=NC2
nuclear beta-catenin stimulation [%]: 0.3

molecule: CCC(C(N)=O)N1CCCC1=O (configuration not stated)
nuclear beta-catenin stimulation [%]: -0.1

molecule: [N-]=[N+]=CC(=O)OC[C@H](N)C(=O)O
nuclear beta-catenin stimulation [%]: -2.7

molecule: CCC1(c2ccccc2)C(=O)N(COC)C(=O)N(COC)C1=O
nuclear beta-catenin stimulation [%]: 0.6

molecule: CCOC(=O)c1ccccc1C(=O)OCC
nuclear beta-catenin stimulation [%]: -0.2

molecule: CN[C@@H]1C[C@@H](c2ccc(Cl)c(Cl)c2)c2ccccc21
nuclear beta-catenin stimulation [%]: 63.1

Each molecule below has a recorded value; state its nuclear beta-catenin stimulation.
1. C[C@@H]1CC[C@H]2[C@@H](C)C(=O)O[C@@H]3O[C@@]4(C)CC[C@@H]1[C@]32OO4
2. O=C1OC(c2ccc(O)c(S(=O)(=O)O)c2)(c2ccc(O)c(S(=O)(=O)O)c2)c2c(Br)c(Br)c(Br)c(Br)c21
3. O=C(O)COc1ccccc1
4. O=C(CCCN1CCC2(CC1)C(=O)NCN2c1ccccc1)c1ccc(F)cc1
5. C[C@]12CCC(=O)C=C1C=C[C@@H]1[C@H]2CC[C@@]2(C)[C@@H]1CC[C@@]2(O)CCC(=O)O
6. COC(C)(C)CCCC(C)C/C=C/C(C)=C/C(=O)OC(C)C (configuration not stated)
7. Oc1ccc2[nH]cc(CCCCN3CC=C(c4ccccc4)CC3)c2c1
8. C#CCN(C)[C@H](C)Cc1ccccc1

Return:
1: 4.6; 2: 3.3; 3: 1.6; 4: 0.4; 5: -1.1; 6: 2; 7: 12.1; 8: -2

Each molecule below has a recorded value; state its nuclear beta-catenin stimulation.
1. COc1cccc2c1C(=O)c1c(O)c3c(c(O)c1C2=O)C[C@@](O)(C(=O)CO)CC3OC1CC(N2CCOC(OC)C2)C(O)C(C)O1 (some centres not stated)
2. CCCCCCCCCCCC[N+](C)(C)CCOc1ccccc1
3. CC1(C)[C@H](C=C(Cl)Cl)[C@@H]1C(=O)OCc1c(F)c(F)cc(F)c1F
4. C=CCN1C[C@H](C)N([C@H](c2ccc(C(=O)N(CC)CC)cc2)c2cccc(OC)c2)C[C@H]1C

Return:
1: 13.6; 2: 20.4; 3: -2.8; 4: 1.7

Each molecule below has a recorded value; state its nuclear beta-catenin stimulation.
1. CCN(Cc1ccc(Cl)nc1)/C(=C/[N+](=O)[O-])NC
2. C[C@]12CC[C@H]3[C@@H](CC=C4C[C@@H](O)CC[C@@]43C)[C@@H]1CC[C@@H]2O

Return:
1: -0.1; 2: 2.9

###

assay.details: sensitizers of A549 cells to miR-34 induction, primary screen, imaging, A549 dox-inducible miR-34, nuclei and caspase counts (AID 1347080)
test.context: A549 miR-34 inducible, Hoechst nuclei count, 48 h; stronger effect = lower value
For each entry below, report its fold change value.
Answers are plain numbers.

compound: Oc1ccc2c3c1O[C@H]1c4c(c5ccccc5n4Cc4ccccc4)C[C@@]4(O)C(C2)N(CC2CC2)CC[C@]314
fold change: 0.935
--
compound: O=c1[nH]c(=O)n(Cl)c(=O)n1Cl
fold change: 0.959
--
compound: COC(=O)[C@@]1(O)CC2OC1(C)n1c3ccccc3c3c4c(c5c6ccccc6n2c5c31)C(=O)NC4 (stereo not given in full)
fold change: 0.903
--
compound: C[C@]12CC[C@H](O)C[C@@H]1CC[C@@H]1[C@@H]2CC[C@]2(C)C(=O)CC[C@@H]12
fold change: 0.944
--
compound: Cc1sc2c(c1C)C(c1ccc(Cl)cc1)=NC(CC(=O)OC(C)(C)C)c1nnc(C)n1-2 (stereo not given)
fold change: 0.954
--
compound: CCCCCC1OC1C/C=C\CCCCCCCC(=O)O (stereo not given)
fold change: 0.986
--
compound: COc1ccc2[nH]c3c(c2c1)CCN=C3C
fold change: 0.83
--
compound: CCCCCCC(=O)O[C@H]1CC[C@H]2[C@@H]3CC(=O)C4=CC(=O)CC[C@]4(C)[C@H]3CC[C@]12C
fold change: 0.899

Each compound below has a recorded value; state its fold change.
1. CNC(=O)Oc1ccccc1OC(C)C
2. CC(Cc1ccccc1)NCCC(c1ccccc1)c1ccccc1 (stereo not given) (tested in a mixture with another compound)

Return:
1: 0.96; 2: 0.804

###

System: F380Y/beta1
assay.details: modulators of BK channel variants, profiling panel, selectivity assay, cell-based, U2OS BacMam, thallium flux, beta subunits (AID 1259406);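 note: initial slope of Thallos dye fluorescence rise after thallium is added; log ratio against the mean of 0.3% DMSO vehicle wells on the same plate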
test.context: at 30 µM
Calls of active or inactive are those of the source.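 The calls were made as follows: active = thallium flux through the channel raised or lowered by more than 3 SD from vehicle-only wells, actives on both sides; inactive = the rest.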
Respond with a class label; see active, inactive

Previously resolved entries follow.
compound: NC(=O)OCCCc1ccccc1
category.label: inactive
//
compound: O=P1(N(CCCl)CCCl)NCCCO1 (centres undefined)
category.label: inactive
//
compound: O=C1CC[C@@]2(O)[C@H]3Cc4ccc(O)c5c4[C@@]2(CCN3CC2CC2)[C@H]1O5
category.label: inactive

Enquiry: Recorded test call requested for `CSC(=NCc1ccccc1Cl)NC(N)=N[N+](=O)[O-]`
Return: inactive

Enquiry: Recorded test call requested for `Cc1ccc(-c2nc3ccc(C)cn3c2CC(=O)N(C)C)cc1`
Return: inactive

Enquiry: Recorded test call requested for `C#CCN(C)[C@H](C)Cc1ccccc1`
Return: inactive

Enquiry: Recorded test call requested for `C[C@]12CC[C@H](O)CC1=CC[C@@H]1[C@@H]2CC[C@@]2(C)[C@H]1CC[C@]2(C)O`
Return: inactive

Enquiry: Recorded test call requested for CCOC(=O)c1cncn1C(C)c1ccccc1 (centres undefined)
Return: inactive

Enquiry: Recorded test call requested for `C[C@]12CCC(=O)C=C1CC[C@@H]1[C@@H]2CC[C@@]2(C)[C@H]1CC[C@]2(C)O`
Return: inactive

###

assay.details: sensitizers of A549 cells to miR-34 induction, primary screen, imaging, A549 dox-inducible miR-34, nuclei and caspase counts (AID 1347080)
test.context: A549 miR-34 inducible, Hoechst nuclei count, 48 h; stronger effect = lower value; cell number ratio, induced over uninduced
Entries whose fold change is below 0.9 take Yes; entries at or above 0.9 take No.

Previously resolved entries follow.
molecule: O=C(O)/C=C/CO
category.label: No

molecule: C[C@@H]1NCCc2cc(O)c(O)cc21
category.label: Yes

molecule: COc1ccc(S(=O)(=O)N(CCO)c2ccccc2CN(C)CC=Cc2ccc(Cl)cc2)cc1
category.label: No

molecule: C[C@H](Cc1ccc2c(c1)OC(C(=O)O)(C(=O)O)O2)NC[C@H](O)c1cccc(Cl)c1
category.label: No

Enquiry: Given CCCC[C@@H](C)C(OC(=O)C[C@@H](CC(=O)O)C(=O)O)C(C[C@@H](C)C[C@H](O)CCCC[C@@H](O)C[C@H](O)[C@H](C)N)OC(=O)C[C@@H](CC(=O)O)C(=O)O (stereo partly drawn) , is recorded fold change strictly lower than 0.9?
Return: No

###

assay.details: differential killing of epithelial or mesenchymal cells, primary screen, imaging, PC-3E GFP, TEM4-18 mCherry, co-culture (AID 1345086);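 note: cells exposed to compound for 72 h before imaging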
test.context: imaging cell counts, measured here: epithelial PC-3E GFP cell survival, at 1 µM
assay.readout: normalised cell number
One number for each entry.

compound: CC1CC[C@]2(NC1)O[C@H]1CC3C4CC[C@H]5C[C@@H](O)CC[C@]5(C)C4CC[C@]3(C)[C@H]1[C@@H]2C (stereo partly specified)
normalised cell number: 1.1

Each compound below has a recorded value; state its normalised cell number.
1. C[C@@H]1CC[C@@]2(NC1)OC1CC3C4CC=C5C[C@@H](O)CC[C@]5(C)C4CC[C@]3(C)C1[C@@H]2C (stereo partly specified)
2. C[C@H]1CCCC(=O)CCC/C=C/c2cc(O)cc(O)c2C(=O)O1

Return:
1: 1.11; 2: 1.02

Each compound below has a recorded value; state its normalised cell number.
1. CC(C)CC(N(C)C)C1(c2ccc(Cl)cc2)CCC1 (stereo unspecified)
2. O=C(NC(=O)c1c(F)cccc1F)Nc1ccc(Cl)cc1
3. O=C1C=C2C(=CCOC2O)O1 (stereo unspecified)
4. CC(Cc1ccc(O)cc1)NCC(O)c1cc(O)cc(O)c1 (stereo unspecified)
5. COc1ccc(C(=O)N2CCCC2=O)cc1
6. CNC(C)[C@H](O)c1ccccc1 (stereo partly specified)

Return:
0.98
0.99
0.14
0.97
1.3
0.95

Each compound below has a recorded value; state its normalised cell number.
1. C[C@]12CC[C@H](O)CC1=CCC1C2CC[C@]2(C)C(=O)CC[C@@H]12 (stereo partly specified)
2. C[N+]1(C)CCOC(O)(c2ccc(-c3ccc(C4(O)C[N+](C)(C)CCO4)cc3)cc2)C1 (stereo unspecified)
3. CCNC1(c2cccs2)CCCCC1=O (stereo unspecified)
4. O=c1[nH]oc2c1CCNC2
5. NC(=O)c1cc([N+](=O)[O-])cc([N+](=O)[O-])c1
6. NCC(O)c1ccc(O)cc1 (stereo unspecified)
7. COc1cc([C@@H]2c3cc4c(cc3[C@H](OC(C)=O)C3COC(=O)[C@H]32)OCO4)cc(OC)c1OC (stereo partly specified)
8. CNC(C)(C)Cc1ccccc1

Return:
[1.37, 1.15, 1.37, 0.86, 0.99, 0.98, 0.19, 0.92]

Each compound below has a recorded value; state its normalised cell number.
1. CC(CC(C(N)=O)(c1ccccc1)c1ccccc1)N(C)C (stereo unspecified)
2. Clc1ccc(COC(Cn2ccnc2)c2ccc(Cl)cc2Cl)cc1 (stereo unspecified)

Return:
1. 1.14
2. 0.92

Each compound below has a recorded value; state its normalised cell number.
1. CC(C)=CCCC1(C)C=Cc2c(O)c3c(c(CC=C(C)C)c2O1)OC12C(CC4CC1C(C)(C)OC2(C/C=C(/C)C(=O)O)C4O)C3=O (stereo unspecified)
2. C=C(C)C1Cc2c(ccc3c(=O)c4c(oc23)COc2cc(OC)c(OC)cc2-4)O1 (stereo unspecified)
3. CCC1(CC)C(=O)C=CNC1=O
4. CCCCCCCCCCCCCCCC[N+](C)(C)C
5. O=C(O)CCCOc1ccc(Cl)cc1Cl

Return:
1. 0.96
2. 0.94
3. 1.13
4. 0.64
5. 1.36

Each compound below has a recorded value; state its normalised cell number.
1. O=C(O)CCCc1ccc(N(CCCl)CCCl)cc1
2. CC1(C)C(=O)C=C[C@@]2(C)C1C[C@@H](O)[C@]1(C)C2CC[C@@]2(C)[C@H](c3ccoc3)OC(=O)[C@H]3O[C@]321 (stereo partly specified)

Return:
1.2
0.88

Each compound below has a recorded value; state its normalised cell number.
1. COc1cc(O)c2c(=O)oc3cc(O)cc(C)c3c2c1
2. C[C@]12CCC(=O)C=C1C=CC1C2CC[C@@]2(C)C1CC[C@@]2(O)CCC(=O)O (stereo partly specified)
3. COc1cc(=O)oc(/C=C/C=C/C=C/C(C)=C/[C@@]2(C)O[C@@H](C)[C@@](C)(O)[C@@H]2O)c1C
4. c1ccc(S[C@@H]2OC3COC(c4ccccc4)OC3[C@H]3NC32)cc1 (stereo partly specified)
5. CC(CCc1ccccc1)NC(C)C(O)c1ccc(O)cc1 (stereo unspecified)
6. O=C(O)c1nn(Cc2ccc(Cl)cc2Cl)c2ccccc12
7. O=[N+]([O-])c1ccc([As](=O)(O)O)cc1

Return:
1. 1.19
2. 0.95
3. 0.87
4. 1.08
5. 1.2
6. 0.85
7. 1.16

Each compound below has a recorded value; state its normalised cell number.
1. CC(=O)OC1CN2CCC1CC2 (stereo unspecified)
2. COc1ccc(C(=O)O)cc1OC

Return:
1. 1.08
2. 1.22

Data credit: PubChem BioAssay
